system: Enterococcus faecalis; experiment: Well plate biofilm formation assay (crystal violet); format: cell-based; conditions: over the concentration range given per compound (Table 4)
Some compounds, each annotated with its measured Antibiofilm activity Enterococcus faecalis.

>  <compound>
Cn1c(=O)c2c(ncn2Cc2cccc(C(F)(F)F)c2)n(C)c1=O

>  <experimental_result>
5.7–23.1%

$$$$
>  <compound>
Cn1c(=O)c2c(ncn2Cc2ccc(C(F)(F)F)cc2)n(C)c1=O

>  <experimental_result>
0.7–16.0%

$$$$
>  <compound>
Cn1c(=O)c2c(ncn2Cc2ccc(OC(F)(F)F)cc2)n(C)c1=O

>  <experimental_result>
5.1–13.9%

$$$$
>  <compound>
O=C(O)c1cn(C2CC2)c2cc(N3CCNCC3)c(F)cc2c1=O [Ciprofloxacin, ciprofloxacin, reference compound]

>  <experimental_result>
18.11%

$$$$
>  <compound>
Cn1c(=O)c2c(ncn2Cc2cc(C(F)(F)F)cc(C(F)(F)F)c2)n(C)c1=O

>  <experimental_result>
0.7–23.9%

$$$$

Check the records and state Antibiofilm activity Enterococcus faecalis for Cn1c(=O)c2c(ncn2Cc2ccccc2C(F)(F)F)n(C)c1=O
1.08–14.7%

* * *

Recorded pIC50 values for a group of molecules are listed next.
Tested on: HeLa cells
Assay: MTT cell viability assay, HeLa
Type: cell-based, human
Settings: Homo sapiens, HeLa, 48 h, MTT, mean ± SD (n = 3)
Experimental: The anticancer potential of substituted theophylline derivatives was investigated using human lung carcinoma (A549, CCL-185) and cervical cancer (HeLa, CCL-2) cell lines obtained from the American Type Culture Collection (ATCC). To evaluate the selectivity of the tested compounds, cytotoxicity was also assessed in a healthy human bronchial epithelial cell line (BEAS-2B, ATCC CRL-9609). […] The SI was calculated according to the following equation:SI = [IC50, healthy/IC50, cancer]
Worth noting: pIC50 values are minus log10 of concentrations stated in mol/L.

>  <smiles_entry>
Cn1c(=O)c2c(ncn2Cc2cccc(C(F)(F)F)c2)n(C)c1=O

>  <pIC50>
4.97

$$$$
>  <smiles_entry>
Cn1c(=O)c2c(ncn2Cc2ccccc2C(F)(F)F)n(C)c1=O

>  <pIC50>
4.94

$$$$
>  <smiles_entry>
Cn1c(=O)c2c(ncn2Cc2ccc(OC(F)(F)F)cc2)n(C)c1=O

>  <pIC50>
4.46

$$$$
>  <smiles_entry>
Cn1c(=O)c2c(ncn2Cc2ccc(C(F)(F)F)cc2)n(C)c1=O

>  <pIC50>
4.83

$$$$

Read the next record carefully.
# assay system HeLa cells: give pIC50 of Cn1c(=O)c2c(ncn2Cc2cc(C(F)(F)F)cc(C(F)(F)F)c2)n(C)c1=O
4.49

* * *

system: Candida albicans; assay: Well plate biofilm formation assay (crystal violet); type: cell-based; conditions: over the concentration range given per compound (Table 4)
reported_metric: Antibiofilm activity Candida albicans

Worked cases, Antibiofilm activity Candida albicans given:
>  <compound>
Cn1c(=O)c2c(ncn2Cc2cc(C(F)(F)F)cc(C(F)(F)F)c2)n(C)c1=O

>  <Antibiofilm activity Candida albicans>
1.8–11.8%

$$$$
>  <compound>
OC(Cn1cncn1)(Cn1cncn1)c1ccc(F)cc1F [Fluconazole, fluconazole, reference compound]

>  <Antibiofilm activity Candida albicans>
29.10%

$$$$
>  <compound>
Cn1c(=O)c2c(ncn2Cc2cccc(C(F)(F)F)c2)n(C)c1=O

>  <Antibiofilm activity Candida albicans>
0.8–23.9%

$$$$
>  <compound>
Cn1c(=O)c2c(ncn2Cc2ccc(C(F)(F)F)cc2)n(C)c1=O

>  <Antibiofilm activity Candida albicans>
0.9–12.3%

$$$$
>  <compound>
Cn1c(=O)c2c(ncn2Cc2ccccc2C(F)(F)F)n(C)c1=O

>  <Antibiofilm activity Candida albicans>
0.5–13.7%

$$$$

Let me know recorded Antibiofilm activity Candida albicans for Cn1c(=O)c2c(ncn2Cc2ccc(OC(F)(F)F)cc2)n(C)c1=O , thanks.
0.4–23.4%

* * *

tested on: HeLa cells; assay: MTT cell viability assay, HeLa; assay type: cell-based, human; conditions: MTT, 48 h, mean ± SD (n = 3)
reported_metric: pIC50
Friendly reminder that pIC50 comes from taking -log10 of the concentration in mol/L.

>  <compound>
Cn1c(=O)c2c(ncn2Cc2cccc(C(F)(F)F)c2)n(C)c1=O [Compound 1b]

>  <pIC50>
4.83

$$$$
>  <compound>
Cn1c(=O)c2c(ncn2Cc2ccc(OC(F)(F)F)cc2)n(C)c1=O [Compound 1e]

>  <pIC50>
4.49

$$$$

Note down pIC50 recorded for Cn1c(=O)c2c(ncn2Cc2cc(C(F)(F)F)cc(C(F)(F)F)c2)n(C)c1=O [Compound 1d]
4.46

Let me know recorded pIC50 for Cn1c(=O)c2c(ncn2Cc2ccc(C(F)(F)F)cc2)n(C)c1=O [Compound 1c] , thanks.
4.94

* * *

tested on: HeLa cells; experiment: MTT cell viability assay, HeLa; assay type: cell-based, human; conditions: ratio of IC50 in BEAS-2B cells to IC50 in HeLa cells
As shown below, each of these compounds has a reported SI (HeLa) value.

>  <smiles_entry>
Cn1c(=O)c2c(ncn2Cc2cc(C(F)(F)F)cc(C(F)(F)F)c2)n(C)c1=O

>  <target_system>
HeLa cells

>  <SI (HeLa)>
4.35 ± 0.13

$$$$
>  <smiles_entry>
Cn1c(=O)c2c(ncn2Cc2cccc(C(F)(F)F)c2)n(C)c1=O

>  <target_system>
HeLa cells

>  <SI (HeLa)>
8.16 ± 0.16

$$$$
>  <smiles_entry>
Cn1c(=O)c2c(ncn2Cc2ccc(OC(F)(F)F)cc2)n(C)c1=O

>  <target_system>
HeLa cells

>  <SI (HeLa)>
4.32 ± 0.11

$$$$

Identify measured SI (HeLa) associated with Cn1c(=O)c2c(ncn2Cc2ccc(C(F)(F)F)cc2)n(C)c1=O
7.83 ± 0.22

Give SI (HeLa) for the following compound: Cn1c(=O)c2c(ncn2Cc2ccccc2C(F)(F)F)n(C)c1=O
8.70 ± 0.20
